- Experimental System: UniProt:Q7TMR0
- Sequence (Q7TMR0 whole entry): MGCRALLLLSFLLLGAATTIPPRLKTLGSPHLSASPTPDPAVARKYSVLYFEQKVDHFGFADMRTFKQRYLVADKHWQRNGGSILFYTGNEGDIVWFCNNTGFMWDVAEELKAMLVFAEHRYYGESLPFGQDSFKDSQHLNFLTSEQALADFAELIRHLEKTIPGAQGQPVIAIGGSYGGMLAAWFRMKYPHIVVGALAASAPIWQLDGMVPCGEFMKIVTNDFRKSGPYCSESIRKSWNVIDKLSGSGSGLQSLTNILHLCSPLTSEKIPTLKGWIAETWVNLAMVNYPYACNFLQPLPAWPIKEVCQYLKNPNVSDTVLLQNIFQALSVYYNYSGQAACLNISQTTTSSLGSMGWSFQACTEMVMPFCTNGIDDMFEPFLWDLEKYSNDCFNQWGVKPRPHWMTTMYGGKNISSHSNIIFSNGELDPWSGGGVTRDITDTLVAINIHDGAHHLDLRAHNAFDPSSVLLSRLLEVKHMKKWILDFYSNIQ
- Method Summary: Inhibition of recombinant mouse PrCP using Mca-Ala-Pro-Lys(Dnp)-OH as substrate after 30 mins by continuous fluorometric assay
Entries whose IC50 is below 20 nM take 1; entries at or above 20 nM take 0.

- Molecule: "OC(CN1CC[C@@H](c2cc(-c3ccc(Cl)cc3)n[nH]2)[C@H](c2ccc(F)cc2)C1)c1ccccc1 (stereo not given in full)"
  Label Class: 1
- Molecule: "Clc1ccc(-c2cc([C@@H]3CC[C@@H](N4CCOCC4)C[C@H]3c3ccc(Br)cc3)[nH]n2)cc1"
  Label Class: 0
- Molecule: "Cn1nc(-c2ccc(F)cc2)cc1C1(c2ccccc2)CCN(CCc2ccccc2)CC1"
  Label Class: 1

Check if IC50 falls below 20 nM for `Fc1ccc([C@@H]2CN(CCc3ccccc3)CC[C@H]2c2cc(-c3ccc(Cl)cc3)n[nH]2)cc1.O=C(O)C(F)(F)F` .
1

Let us now turn to `Fc1ccc(-c2cc(C3(c4ccccc4)CCN(CCc4ccccc4)CC3)[nH]n2)cc1`
0

Let us now turn to `O=C(CN1CC[C@@H](c2cc(-c3ccc(Cl)cc3)n[nH]2)[C@H](c2ccc(F)cc2)C1)c1ccccc1`
0

Let us now turn to `Fc1ccc([C@H]2CN(CCc3ccccc3)CC[C@H]2c2cc(-c3ccc(Cl)cc3)n[nH]2)cc1`
0

Let us now turn to Fc1ccc([C@@H]2CN(CCC(F)(F)F)CC[C@H]2c2cc(-c3ccc(Cl)cc3)n[nH]2)cc1 (racemic)
0

Let us now turn to `O=C([C@@H]1CC[C@@H](NCc2ccc(Cl)cc2)C[C@H]1c1ccc(F)cc1)N1CC(c2ccccc2)(c2ccccc2)C1`
1

---

- Method Summary: Half life in C57Bl/6 mouse at 1 mg/kg, iv and 2 mg/kg, po
- Format: ADME, organism-based
- Experimental Conditions: in vivo
Quantity Name: half-life (h)
Note: unit h is implicit; provide only the numeric part.

Reported half-life, molecule `Fc1ccc([C@@H]2CN(CCc3ccccc3)CC[C@H]2c2cc(-c3ccc(Cl)cc3)n[nH]2)cc1.O=C(O)C(F)(F)F` : ____
4.8

---

- Method Summary: Fraction unbound in mouse 100% plasma
- Format: ADME, cell-free
Quantity Name: fraction unbound

Here is how some compounds turned out for fraction unbound.
- Compound: "Clc1ccc(-c2cc(C3(c4ccccc4)CCN(CCc4ccccc4)CC3)[nH]n2)cc1"
  Quantity Name: "fraction unbound"
  Result: "< 0.01"
- Compound: "Cn1nc(-c2ccc(F)cc2)cc1C1(c2ccccn2)CCN(CCc2ccccc2)CC1"
  Quantity Name: "fraction unbound"
  Result: 0.04

Reported fraction unbound, compound `Fc1ccc([C@@H]2CN(CCc3ccccc3)CC[C@H]2c2cc(-c3ccc(Cl)cc3)n[nH]2)cc1.O=C(O)C(F)(F)F` : ____
< 0.01

Let us now turn to Fc1ccc([C@@H]2CN(Cc3ccc(Cl)cc3)CC[C@H]2c2cc(-c3ccc(Cl)cc3)n[nH]2)cc1 (racemic)
< 0.01

Let us now turn to `Cc1ccccc1[C@@H]1C[C@H](N2CCOCC2)CC[C@H]1C(=O)N1CC(c2ccccc2)(c2ccccc2)C1.O=C(O)C(F)(F)F`
0.04

Let us now turn to `Cn1nc(-c2ccc(F)cc2)cc1C1(c2ccccc2)CCN(CCc2ccccc2)CC1`
< 0.01

Let us now turn to `Fc1ccc(-c2cc(C3(c4ccccc4)CCN(CCc4ccccc4)CC3)[nH]n2)cc1`
< 0.01

---

fraction unbound values for the compounds below.
- Method Summary: Fraction unbound in human 100% plasma
- Format: ADME, cell-free
Respond numerically, and do not add a unit to the figure.

- Smiles String: "Fc1ccc([C@@H]2CN(CCc3ccccc3)CC[C@H]2c2cc(-c3ccc(Cl)cc3)n[nH]2)cc1.O=C(O)C(F)(F)F"
  fraction unbound: 0.03

Now take the following compound into account.
Reported fraction unbound, compound `Clc1ccc(-c2cc(C3(c4ccccc4)CCN(CCc4ccccc4)CC3)[nH]n2)cc1` : ____
0.03

---

- Method Summary: Volume of distribution in C57Bl/6 mouse at 1 mg/kg, iv and 2 mg/kg, po
- Assay type: ADME, organism-based
- Experimental Conditions: in vivo
Quantity Name: Vd (L/kg)
Note: unit L/kg is implicit; provide only the numeric part.

Reported Vd, molecule `Fc1ccc([C@@H]2CN(CCc3ccccc3)CC[C@H]2c2cc(-c3ccc(Cl)cc3)n[nH]2)cc1.O=C(O)C(F)(F)F` : ____
13.3

---

- Method Summary: Half life in C57Bl/6 mouse at 2 mg/kg, iv and 10 mg/kg, po
- Type: ADME, organism-based
- Experimental Conditions: in vivo
Quantity Name: half-life (h)
Note: unit h is implicit; provide only the numeric part.

Reported half-life, compound `Cc1ccccc1[C@@H]1C[C@H](N2CCOCC2)CC[C@H]1C(=O)N1CC(c2ccccc2)(c2ccccc2)C1.O=C(O)C(F)(F)F` : ____
1.7

---

- Method Summary: Oral bioavailability in C57Bl/6 mouse at 2 mg/kg
- Format: ADME, organism-based
- Experimental Conditions: in vivo
Quantity Name: bioavailability (%)
Note: unit % is implicit; provide only the numeric part.

Reported bioavailability, molecule `Fc1ccc([C@@H]2CN(CCc3ccccc3)CC[C@H]2c2cc(-c3ccc(Cl)cc3)n[nH]2)cc1.O=C(O)C(F)(F)F` : ____
33

---

- Method Summary: Oral bioavailability in C57Bl/6 mouse at 10 mg/kg
- Assay type: ADME, organism-based
- Experimental Conditions: in vivo
Quantity Name: bioavailability (%)
Note: unit % is implicit; provide only the numeric part.

Reported bioavailability, compound `Cc1ccccc1[C@@H]1C[C@H](N2CCOCC2)CC[C@H]1C(=O)N1CC(c2ccccc2)(c2ccccc2)C1.O=C(O)C(F)(F)F` : ____
7.8

---

- Method Summary: Volume of distribution in C57Bl/6 mouse at 2 mg/kg, iv and 10 mg/kg, po
- Assay type: ADME, organism-based
- Experimental Conditions: in vivo
Quantity Name: Vd (L/kg)
Note: unit L/kg is implicit; provide only the numeric part.

Reported Vd, compound `Cc1ccccc1[C@@H]1C[C@H](N2CCOCC2)CC[C@H]1C(=O)N1CC(c2ccccc2)(c2ccccc2)C1.O=C(O)C(F)(F)F` : ____
10.8

---

fraction unbound values for the compounds below.
- Method Summary: Fraction unbound in human 100% plasma
- Assay type: ADME, cell-free

- Smiles String: "Cc1ccccc1[C@@H]1C[C@H](N2CCOCC2)CC[C@H]1C(=O)N1CC(c2ccccc2)(c2ccccc2)C1.O=C(O)C(F)(F)F"
  Quantity Name: "fraction unbound"
  Result: 0.02

Reported fraction unbound, compound `Fc1ccc(-c2cc(C3(c4ccccc4)CCN(CCc4ccccc4)CC3)[nH]n2)cc1` : ____
0.07

Let us now turn to `Cn1nc(-c2ccc(F)cc2)cc1C1(c2ccccn2)CCN(CCc2ccccc2)CC1`
0.01
